tested on: mPTP-inactive Daoy cell; experiment: Inhibitory effect on mPTP-inactive Daoy cell (PPIF shRNA; Promega CellTiter-Glo, intracellular ATP); format: cell-based, human; settings: Daoy cell transfected with virus vector carrying PPIF shRNA
IC50 overview

compound	observed
COc1ccc2c(c1OCCCCNC(=O)OC(C)(C)C)C(C(Cl)(Cl)Cl)N1CCc3cc4c(cc3C1=C2)OCO4 (centres unmarked)	2360 nM
COc1ccc2c(c1OC)C(C)N1CCc3cc4c(cc3C1=C2CCCc1ccccc1)OCO4 (centres unmarked)	1780 nM
COc1ccc2c(c1N1CCN(C)CC1)C(C1CCCC1)N1CCc3cc4c(cc3C1=C2)OCO4 (centres unmarked) [AB35510]	290 nM
COc1ccc2c(c1N1CCN(C)CC1)C(C1CCCC1)N1CCc3cc4c(cc3C1=C2)OCO4 (centres unmarked) [AB35519]	6030 nM

Here's the next entry for you.
Ask | Looking for the measured IC50 of [2H]C1([2H])c2c(ccc(OC)c2OC)C=C2c3cc4c(cc3CCN21)OCO4 , can you help?
Reply | 1100 nM
